Overview of reported MIC across a group of molecules:
Tested on: Pseudomonas aeruginosa
assay notes: Antibacterial activity against Pseudomonas aeruginosa ATCC 27853 assessed as bacterial growth inhibition incubated for 18 hrs by micro-dilution broth method
Assay type: functional

chemical structure	subject of test	relation qualifier	MIC [µg/mL]
N=C(N)NCCCCCCCCN(CCCCCCCCNC(=N)N)C(=O)N(CCCCCCCCN)CCCCCCCCN	Pseudomonas aeruginosa	=	32
CCCCCCCCN(CCCCCCCC)C(=O)N(CCCCCCCC)CCCCCCCCNC(=N)NCC1CC1.O=C(O)C(F)(F)F	Pseudomonas aeruginosa	>	128
CCCCCCCCN(CCCCCCNC(=N)NCC1CC1)C(=O)N(CCCCCCCCNC(=N)NCC1CC1)CCCCCCCCNC(=N)NCC1CC1	Pseudomonas aeruginosa	=	8
CCCCCCN(CCCCCCNC(=N)NCC1CC1)C(=O)N(CCCCCCCCNC(=N)NCC1CC1)CCCCCCNC(=N)NCC1CC1	Pseudomonas aeruginosa	=	64
CCCCCCCCN(CCCCCCCC)C(=O)N(CCCCCCCCNC(=N)NCC1CC1)CCCCCCCCNC(=N)NCC1CC1.O=C(O)C(F)(F)F	Pseudomonas aeruginosa	>	128
CNC(=O)N(CCCCCCCCNC(=N)NCC1CC1)CCCCCCCCNC(=N)NCC1CC1	Pseudomonas aeruginosa	>	128
CCCCCCCCN(CCCCCCCCNC(=N)NCC1CC1)C(=O)N(CCCCCCCCNC(=N)NCC1CC1)CCCCCCCCNC(=N)NCC1CC1	Pseudomonas aeruginosa	=	8
N=C(NCCCCCCCCN(CCCCCCCCNC(=N)NCC1CC1)C(N)=O)NCC1CC1.O=C(O)C(F)(F)F	Pseudomonas aeruginosa	=	128
N=C(NCCCCCCCCNC(N)=O)NCC1CC1.O=C(O)C(F)(F)F	Pseudomonas aeruginosa	=	16
N=C(N)NCCCCCCCCN(CCCCCCCCN)C(=O)N(CCCCCCCCN)CCCCCCCCN	Pseudomonas aeruginosa	=	128
CCCCCCCCN(CCCCCCCCNC(=N)NCC1CC1)C(=O)N(CCCCCCCC)CCCCCCCCNC(=N)NCC1CC1.O=C(O)C(F)(F)F	Pseudomonas aeruginosa	>	128
N=C(N)NCCCCCCCCN(CCCCCCCCN)C(=O)N(CCCCCCCCNC(=N)N)CCCCCCCCNC(=N)N	Pseudomonas aeruginosa	=	16
N=C(N)NCCCCCCN(CCCCCCN)C(=O)N(CCCCCCN)CCCCCCNC(=N)N	Pseudomonas aeruginosa	>	128
CNC(=O)NCCCCCCCCNC(=N)NCC1CC1.O=C(O)C(F)(F)F	Pseudomonas aeruginosa	>	128
N=C(N)NCCCCCCCCN(CCCCCCCCNC(=N)N)C(=O)N(CCCCCCCCNC(=N)N)CCCCCCCCNC(=N)NCC1CC1.O=C(O)C(F)(F)F	Pseudomonas aeruginosa	=	16
